Biological target: T1, Nluc-IL23R fusion protein (human, UniProt Q5VWK5 22-629)
T1 construct: range 22-629; Stably expressed in HEK293 cells; also called hIL-23R; human IL-23R fused to a Nanoluc luciferase enzyme; not shown: Nanoluc luciferase (Promega N1371 plasmid) at the N-terminus
T1 sequence (looked up): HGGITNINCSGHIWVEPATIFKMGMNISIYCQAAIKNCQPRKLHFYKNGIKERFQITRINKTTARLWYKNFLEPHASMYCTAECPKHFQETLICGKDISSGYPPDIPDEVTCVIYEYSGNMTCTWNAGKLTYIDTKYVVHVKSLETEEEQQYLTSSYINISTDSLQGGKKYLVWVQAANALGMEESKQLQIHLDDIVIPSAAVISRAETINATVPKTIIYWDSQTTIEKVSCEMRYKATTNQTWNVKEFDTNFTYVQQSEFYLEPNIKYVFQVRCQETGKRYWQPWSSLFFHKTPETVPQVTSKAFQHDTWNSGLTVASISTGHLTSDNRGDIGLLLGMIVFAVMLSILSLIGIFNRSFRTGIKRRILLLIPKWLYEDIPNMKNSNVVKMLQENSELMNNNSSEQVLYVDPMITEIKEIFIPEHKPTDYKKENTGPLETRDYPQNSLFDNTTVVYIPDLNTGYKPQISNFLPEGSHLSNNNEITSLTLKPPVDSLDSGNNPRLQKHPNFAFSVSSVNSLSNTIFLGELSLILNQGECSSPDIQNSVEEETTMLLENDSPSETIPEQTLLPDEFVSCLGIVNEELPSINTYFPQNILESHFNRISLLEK
Test: BRET displacement of TAMRA-labelled peptide, Nluc-IL23R membranes
*1 amine or outer side, *2 acyl side, *3 side chain or, on linkers, in order; H or OH if unused. Bridges are numbered along the chain shown (N, C = ends). [ ]: non-standard residue; d: D form. 1,3‑dibromopropan‑2‑one = linker (CAS 816-39-7) joining two Cys as 1,3-dithio-propan-2-one bridge -SCH2C(=O)CH2S-; Trp(1-Me) = Cn1cc(C[C@H](N)C(=O)O)c2ccccc21; 2Nal = N[C@@H](Cc1ccc2ccccc2c1)C(=O)O; αMeL = CC(C)C[C@](C)(N)C(=O)O; CH2COCH2 = O=C(C[*:1])C[*:2]
PROPERTY MEASURED: Ki (nM)
Report the figure in nM without appending any unit label.

Problem: Which measured Ki value corresponds to Ac-DESCWQCWWLK-NH2 (lactam 2-11; linker 4-7 via 1,3‑dibromopropan‑2‑one) [Compound 11] ?
Result: 706

Problem: And what about the binder Ac-KSC[Trp(1-Me)]QCW[2Nal]LER-NH2 (lactam 1-10; linker 3-6 via CH2COCH2; SMILES CC(=O)N[C@H]1CCCCNC(=O)CC[C@@H](C(=O)N[C@@H](CCCNC(=N)N)C(N)=O)NC(=O)[C@H](CC(C)C)NC(=O)[C@H](Cc2ccc3ccccc3c2)NC(=O)[C@H](Cc2c[nH]c3ccccc23)NC(=O)[C@@H]2CSCC(=O)CSC[C@H](NC(=O)[C@H](CO)NC1=O)C(=O)N[C@@H](Cc1cn(C)c3ccccc13)C(=O)N[C@@H](CCC(N)=O)C(=O)N2) [Compound 27] ?
Result: 1.77

Problem: And what about the binder Ac-DESCWQCW[2Nal][αMeL]KG-NH2 (lactam 2-11; linker 4-7 via CH2COCH2; SMILES CC(=O)N[C@@H](CC(=O)O)C(=O)N[C@H]1CCC(=O)NCCCC[C@@H](C(=O)NCC(N)=O)NC(=O)[C@](C)(CC(C)C)NC(=O)[C@H](Cc2ccc3ccccc3c2)NC(=O)[C@H](Cc2c[nH]c3ccccc23)NC(=O)[C@@H]2CSCC(=O)CSC[C@H](NC(=O)[C@H](CO)NC1=O)C(=O)N[C@@H](Cc1c[nH]c3ccccc13)C(=O)N[C@@H](CCC(N)=O)C(=O)N2) [Compound 60] ?
Result: 212
